target: T1, human MSLN-R3 protein (human, UniProt Q13421 487-598); assay: ELISA on coated antigen, antibody 0.01 nM
T1 construct: also called hMSLN-R3
T1 sequence (Q13421 495-606, form in doubt): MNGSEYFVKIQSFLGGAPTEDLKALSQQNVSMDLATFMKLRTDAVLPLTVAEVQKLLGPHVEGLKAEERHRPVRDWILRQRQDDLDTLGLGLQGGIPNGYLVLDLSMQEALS
Recorded measurements of OD450, one per entry
The figure you give is taken to be in OD450; do not add the unit.

Input: Recorded OD450 of F7.33.24-H5 (scFv, not shown: small tags and cut ends, also called S009-F7.33.24 humanized antibody VH1a + VL2) scFv: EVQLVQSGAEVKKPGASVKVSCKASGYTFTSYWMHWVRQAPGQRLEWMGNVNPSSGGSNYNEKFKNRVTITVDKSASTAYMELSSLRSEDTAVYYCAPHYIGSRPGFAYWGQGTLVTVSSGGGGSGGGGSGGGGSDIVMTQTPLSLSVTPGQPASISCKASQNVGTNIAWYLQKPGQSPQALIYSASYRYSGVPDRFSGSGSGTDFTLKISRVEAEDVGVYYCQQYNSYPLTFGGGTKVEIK , please.
Output: 0.04

***
Input: Recorded OD450 of F7.33.24-H4 (scFv, not shown: small tags and cut ends, also called S009-F7.33.24 humanized antibody VH1a + VL1) scFv: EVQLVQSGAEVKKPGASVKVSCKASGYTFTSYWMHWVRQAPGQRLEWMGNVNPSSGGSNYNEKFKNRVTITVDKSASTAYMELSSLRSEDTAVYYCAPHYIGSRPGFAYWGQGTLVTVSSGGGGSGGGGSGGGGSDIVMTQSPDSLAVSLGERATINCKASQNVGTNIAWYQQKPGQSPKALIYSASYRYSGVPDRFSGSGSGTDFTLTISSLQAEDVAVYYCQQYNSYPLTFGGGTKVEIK , please.
Output: 0.04

Input: Recorded OD450 of F7.33.24-H7 (scFv, not shown: small tags and cut ends, also called S009-F7.33.24 humanized antibody VH2 + VL1) scFv: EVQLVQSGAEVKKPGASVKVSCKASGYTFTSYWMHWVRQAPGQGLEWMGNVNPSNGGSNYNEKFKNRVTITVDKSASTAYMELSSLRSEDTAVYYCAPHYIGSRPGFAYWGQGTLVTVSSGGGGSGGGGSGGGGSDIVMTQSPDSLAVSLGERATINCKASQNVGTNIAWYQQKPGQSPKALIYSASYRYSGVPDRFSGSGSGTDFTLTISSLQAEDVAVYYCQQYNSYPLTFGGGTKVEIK , please.
Output: 0.04

Input: Recorded OD450 of F7.33.24-H9 (scFv, not shown: small tags and cut ends, also called S009-F7.33.24 humanized antibody VH2 + VL3) scFv: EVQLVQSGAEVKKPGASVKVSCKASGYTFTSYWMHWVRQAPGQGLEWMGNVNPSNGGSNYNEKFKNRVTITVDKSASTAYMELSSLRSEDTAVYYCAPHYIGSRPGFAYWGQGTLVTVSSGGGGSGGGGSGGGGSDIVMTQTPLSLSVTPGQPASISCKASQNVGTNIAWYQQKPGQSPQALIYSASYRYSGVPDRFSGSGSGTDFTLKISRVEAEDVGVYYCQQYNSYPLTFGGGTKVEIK , please.
Output: 0.05

Input: Recorded OD450 of F7.33.24-H6 (scFv, not shown: small tags and cut ends, also called S009-F7.33.24 humanized antibody VH1a + VL3) scFv: EVQLVQSGAEVKKPGASVKVSCKASGYTFTSYWMHWVRQAPGQRLEWMGNVNPSSGGSNYNEKFKNRVTITVDKSASTAYMELSSLRSEDTAVYYCAPHYIGSRPGFAYWGQGTLVTVSSGGGGSGGGGSGGGGSDIVMTQTPLSLSVTPGQPASISCKASQNVGTNIAWYQQKPGQSPQALIYSASYRYSGVPDRFSGSGSGTDFTLKISRVEAEDVGVYYCQQYNSYPLTFGGGTKVEIK , please.
Output: 0.04

Input: Recorded OD450 of F7.33.24-H1 (scFv, not shown: small tags and cut ends, also called S009-F7.33.24 humanized antibody VH1 + VL1) scFv: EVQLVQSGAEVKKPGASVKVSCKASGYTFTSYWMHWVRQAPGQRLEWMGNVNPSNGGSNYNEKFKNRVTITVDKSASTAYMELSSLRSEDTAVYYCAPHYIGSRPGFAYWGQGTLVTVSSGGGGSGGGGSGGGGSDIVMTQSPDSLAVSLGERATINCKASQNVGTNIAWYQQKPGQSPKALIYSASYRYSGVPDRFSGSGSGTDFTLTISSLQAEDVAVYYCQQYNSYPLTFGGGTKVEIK , please.
Output: 0.04

Input: Recorded OD450 of F7.33.24-H2 (scFv, not shown: small tags and cut ends, also called S009-F7.33.24 humanized antibody VH1 + VL2) scFv: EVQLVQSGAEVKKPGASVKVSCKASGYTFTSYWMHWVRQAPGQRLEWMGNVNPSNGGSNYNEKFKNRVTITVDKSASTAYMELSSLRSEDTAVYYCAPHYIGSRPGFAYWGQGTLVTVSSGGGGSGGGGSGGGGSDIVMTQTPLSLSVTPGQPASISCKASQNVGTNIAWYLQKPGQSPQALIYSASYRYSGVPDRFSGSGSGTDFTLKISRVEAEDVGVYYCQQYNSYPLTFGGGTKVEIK , please.
Output: 0.04

Input: Recorded OD450 of Tab110 (scFv, not shown: small tags and cut ends, also called YP218 VH-(G4S)3-VL-his antibody; positive control) scFv: QQQLEESGGGLVKPEGSLTLTCKASGFDLGFYFYACWVRQAPGKGLEWIACIYTAGSGSTYYASWAKGRFTISKASSTTVTLQMTSLAAADTATYFCARSTANTRSTYYLNLWGPGTLVTVSSGGGGSGGGGSGGGGSDVVMTQTPASVSEPVGGTVTIKCQASQRISSYLSWYQQKPGQRPKLLIFGASTLASGVPSRFKGSGSGTEYTLTISDLECADAATYYCQSYAYFDSNNWHAFGGGTEVVV , please.
Output: 0.04

Input: Recorded OD450 of Tab111 (scFv, not shown: small tags and cut ends, also called YP218 VL-(G4S)3-VH-his antibody; positive control) scFv: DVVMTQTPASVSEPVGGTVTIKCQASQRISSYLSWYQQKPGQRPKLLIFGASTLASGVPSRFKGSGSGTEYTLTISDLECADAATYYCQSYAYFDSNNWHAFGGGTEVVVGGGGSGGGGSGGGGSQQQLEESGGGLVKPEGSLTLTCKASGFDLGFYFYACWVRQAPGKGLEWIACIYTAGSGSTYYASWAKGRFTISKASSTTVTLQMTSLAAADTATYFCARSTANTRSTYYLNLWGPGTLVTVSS , please.
Output: 0.05

Input: Recorded OD450 of F7.33.24-H10 (scFv, not shown: small tags and cut ends, also called S009-F7.33.24 humanized antibody VH2a + VL1) scFv: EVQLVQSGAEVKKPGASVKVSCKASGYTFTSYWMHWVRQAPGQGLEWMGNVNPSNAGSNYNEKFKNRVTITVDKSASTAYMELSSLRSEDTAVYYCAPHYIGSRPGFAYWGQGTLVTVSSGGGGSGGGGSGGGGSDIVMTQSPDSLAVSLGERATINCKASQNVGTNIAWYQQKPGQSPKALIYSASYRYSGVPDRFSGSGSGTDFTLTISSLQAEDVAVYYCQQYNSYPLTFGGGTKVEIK , please.
Output: 0.04

The measurements presented in this section are drawn from patent US20250250357A1.
